biological target: human NTCP (Homo sapiens); assay: Screening taurocholate uptake assay (96-well, [14C]taurocholate, 10 µM drug); conditions: combined ranking of functional and binding screening assays
Sequence (Q14973 whole entry): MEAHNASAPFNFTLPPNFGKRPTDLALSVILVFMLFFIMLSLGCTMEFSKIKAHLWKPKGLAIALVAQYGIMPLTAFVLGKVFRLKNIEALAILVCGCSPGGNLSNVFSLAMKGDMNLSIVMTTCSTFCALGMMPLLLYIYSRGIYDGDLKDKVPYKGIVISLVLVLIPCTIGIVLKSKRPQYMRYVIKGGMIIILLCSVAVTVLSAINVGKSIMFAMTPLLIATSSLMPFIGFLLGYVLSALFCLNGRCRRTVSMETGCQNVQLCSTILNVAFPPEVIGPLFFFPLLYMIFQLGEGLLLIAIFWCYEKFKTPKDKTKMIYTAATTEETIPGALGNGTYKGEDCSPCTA
Where a name gives a salt, the structure may show the parent alone.
The compounds listed here are annotated with their Ranking score.

// known answers, use as guide
Noted for CS(=O)(=O)O.Cc1ccc2c(c1)c1c3n2CCNC3CCC1 (centres unmarked) [Pirlindole mesylate] : its Ranking score reads 496.839

Value of measured Ranking score for the entry OCCN1CCN(CCCN2c3ccccc3C=Cc3ccccc32)CC1 [Opipramol dihydrochloride] : 627.796

More entries:
Field Ranking score (entry "C=C1C[C@@H]2[C@H](CC[C@]3(C)C(=O)CC[C@@H]23)[C@@]2(C)C=CC(=O)C=C12" ) reads 568.146

Lookup result for "Oc1c(I)cc(Cl)c2cccnc12" ; measured Ranking score: 627.53

Consider Cc1ncc([N+](=O)[O-])n1CC(C)O (centres unmarked) . Its measured Ranking score is 548.521

compound CC(C)(C)NCC(O)COc1cccc2c1CCC(=O)N2 (centres unmarked) [Carteolol hydrochloride] , Ranking score observed: 570.247

Please fill in: Ranking score reported for "O=C(N[C@H](CO)[C@H](O)c1ccc([N+](=O)[O-])cc1)C(Cl)Cl" = 594.757

The recorded Ranking score for entry CCC(COC(=O)c1cc(OC)c(OC)c(OC)c1)(c1ccccc1)N(C)C (centres unmarked) equals 579.884

Noted for "N[C@@H](C(=O)N[C@@H]1C(=O)N2C(C(=O)O)=C(Cl)CC[C@H]12)c1ccccc1" : its Ranking score reads 611.882

The compound N=C(N)NC(=O)Cc1c(Cl)cccc1Cl [Guanfacine hydrochloride] showed Ranking score equal to 635.421

Data point: "O=c1[nH]c2ccccc2n1CCCN1CCC(n2c(=O)[nH]c3cc(Cl)ccc32)CC1" ; Ranking score = 475.277

The reported value for CO/N=C(\C(=O)N[C@@H]1C(=O)N2C(C(=O)OC(C)OC(C)=O)=C(COC(N)=O)CS[C@H]12)c1ccco1 (some centres unmarked) in terms of Ranking score is 621.898

GET /value?item= CC(=O)OCC(=O)[C@@]1(O)CC[C@H]2[C@@H]3CCC4=CC(=O)C=C[C@]4(C)[C@@]3(F)[C@@H](O)C[C@@]21C [Isoflupredone acetate] &field=Ranking score returns 486.111

Ranking score in this record for CC1(C)O[C@@H]2C[C@H]3[C@@H]4CCC5=CC(=O)CC[C@]5(C)[C@@]4(F)[C@@H](O)C[C@]3(C)[C@]2(C(=O)CCl)O1 [Halcinonide] : 634.219

Briefly, Ranking score measured for CCCC(C(=O)OCCN(CC)CC)(c1ccccc1)c1ccccc1 [Proadifen hydrochloride] : 468.828

Record Cc1cccc(N(C)C(=S)Oc2ccc3ccccc3c2)c1 [Tolnaftate] . Reported Ranking score: 550.781

The recorded Ranking score for "NC[C@H]1O[C@H](O[C@H]2[C@H](O)[C@@H](O[C@H]3O[C@H](CO)[C@@H](O)[C@H](N)[C@H]3O)[C@H](N)C[C@@H]2N)[C@H](N)C[C@@H]1O" is 498.515

Measured Ranking score of CC(C)NNC(=O)c1ccncc1.O=P(O)(O)O [Iproniazide phosphate] : 542.692

// "COc1cnc(NS(=O)(=O)c2ccc(N)cc2)nc1" : Ranking score value = 466.613
